System: broadleaf signalgrass
measurement-protocol: Test F preemergence test
Assay type: in vivo, Brachiaria platyphylla
experimental-parameters: 16 g ai/ha, preemergence; scale 0 to 100
Measured Plant response rating, Signalgrass by item

# molecule, Plant response rating, Signalgrass
records = [
    ("Cn1nc(C(F)(F)F)c(C[S+]([O-])c2ccc(Cl)c[n+]2[O-])c1OC(F)F (stereo not drawn) [Compound 6]", 50),
    ("Cc1cc[n+]([O-])c(S(=O)(=O)Cc2c(C(F)(F)F)nn(C)c2OCC(F)(F)F)c1 [Compound 31]", 35),
    ("CCn1nc(C(F)(F)F)c(CS(=O)(=O)c2cc(C)cc[n+]2[O-])c1OCC(F)(F)F [Compound 64]", 30),
    ("CCn1nc(C(F)(F)F)c(C[S+]([O-])c2cc(C)cc[n+]2[O-])c1OCC(F)(F)F (racemic) [Compound 66]", 30),
    ("CC(c1c(C(F)(F)F)nn(C)c1OC(F)F)S(=O)(=O)c1cccc[n+]1[O-] (stereo not drawn) [Compound 5]", 30),
    ("CC(Oc1c(C[S+]([O-])c2ccc(Cl)c[n+]2[O-])c(C(F)(F)F)nn1C)C(F)(F)F (stereo not drawn) [Compound 87]", 0),
]
